target: RSV postfusion F (postF), F ΔFP (Respiratory syncytial virus, UniProt P03420 26-513); assay: BLI, IgG on anti-human IgG sensor, 100 nM antigen
Overview of reported Kd across a group of binders:
Report the value in pM with no unit label.

Previously resolved entries follow.
- binder: "ADI-41603 (antibody, V domains shown, also called Ab 877; Antibody Number 877) VH: EVQLVESGGGLVKPGRSLRLSCTTSGFTFGDYAMSWFRQAPGKGLEWVGFIRSKPYGGATAYAASVRGRFTISNDDSKSIAYLQMESLKIEDTAVYYCARDYDDFFFYDYWGQGTLVTVSS VL: DIRMTQSPATLSVSPGERATLSCRASENIYSNLAWYQQKPGQAPRLLIYGASTRATGLPARFSGSGSGTEFTLTISSLQSEDFAVYYCQQYNNWPAFGGGTKVEIK"
  Kd / pM: 490
- binder: "ADI-41574 (antibody, V domains shown, also called Ab 850; Antibody Number 850) VH: QITLKESGPTLVKPTQTLTLTCTFSGFSLSTSGVGVAWIRQPPGKALEWLALIYWDDDKRYSPSLKSRLTITKDTSKNQVVLTMTNMDPVDTATYYCAHSSVYTTPFDYWGQGSLVTVSS VL: DIQLTQSPSTLSASVGDRVTITCRASQSISDWLAWYQQKPGKAPKLLIYKAFTLESGVPSRFSGSGSGTEFTLTISSLQPDDFATYYCQQYTSYWTFGQGTKVEIK"
  Kd / pM: 123000

## Task Fill in: Kd of ADI-41608 (antibody, V domains shown) VH: QVQLVQSGDEVKKPGESLKISCKGSEHTFTNYWIAWVRQMPGKGLECMGVIWPDDSDTKYSPSFQGQVTISADKSINTAYLHLSSLRASDTAMYYCATSKFRTGFDFWGQGTLVTVSS VL: NFMLTQPHSVSESPGKTVIISCTRSSGNIASNYVQWYQQRPGSSPTTVVYEDNQRPSGVPDRFSGSIDSSSNSASLTISGLKTEDEADYYCQSYDSSNPWVFGGGTKLTVL is ___
## Result 285
